study-target: Serine/threonine-protein kinase N1 (Homo sapiens)
Sequence (Q16512 whole entry): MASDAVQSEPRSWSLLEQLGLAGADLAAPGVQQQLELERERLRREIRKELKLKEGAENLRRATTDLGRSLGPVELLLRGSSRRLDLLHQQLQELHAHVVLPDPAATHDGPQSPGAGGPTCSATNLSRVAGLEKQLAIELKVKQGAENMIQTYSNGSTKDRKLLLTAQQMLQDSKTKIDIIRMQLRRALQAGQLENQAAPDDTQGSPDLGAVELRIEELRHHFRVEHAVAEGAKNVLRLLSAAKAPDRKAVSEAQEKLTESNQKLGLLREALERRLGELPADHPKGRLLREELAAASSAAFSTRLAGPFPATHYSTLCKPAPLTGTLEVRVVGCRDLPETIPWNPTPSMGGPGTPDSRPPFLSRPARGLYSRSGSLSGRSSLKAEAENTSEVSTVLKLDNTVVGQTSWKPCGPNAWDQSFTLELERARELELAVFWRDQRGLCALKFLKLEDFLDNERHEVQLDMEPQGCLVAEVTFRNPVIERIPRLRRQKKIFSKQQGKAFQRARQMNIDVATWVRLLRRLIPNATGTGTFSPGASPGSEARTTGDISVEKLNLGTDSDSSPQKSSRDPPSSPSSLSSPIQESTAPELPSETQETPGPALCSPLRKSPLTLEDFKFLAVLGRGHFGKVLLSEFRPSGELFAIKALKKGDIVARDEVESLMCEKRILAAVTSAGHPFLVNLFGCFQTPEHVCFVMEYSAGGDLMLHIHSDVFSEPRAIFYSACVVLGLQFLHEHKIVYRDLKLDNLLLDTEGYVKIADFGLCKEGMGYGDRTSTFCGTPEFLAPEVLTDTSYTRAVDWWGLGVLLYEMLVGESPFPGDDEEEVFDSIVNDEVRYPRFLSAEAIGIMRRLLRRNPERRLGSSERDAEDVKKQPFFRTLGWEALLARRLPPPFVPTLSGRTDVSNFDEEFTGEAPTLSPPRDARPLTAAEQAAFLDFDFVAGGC
assay-details: Inhibition of recombinant PKN1
property-label: IC50

Lookup: Tell me IC50 reported for CCN1CCN(c2ccc(Nc3cc(N(C)C(=O)Nc4c(Cl)c(OC)cc(OC)c4Cl)ncn3)cc2)CC1.O=P(O)(O)O [INFIGRATINIB PHOSPHATE]
Found: > 10 µM

###

assay-details: Cmax in plasma of RT112/luc1 cells implanted athymic nude mouse at 20 mg/kg, po by LC/MS/MS analysis
Format: ADME, organism-based
Parameters: dose 20 mg/kg, route oral
property-label: Cmax

Lookup: Tell me Cmax reported for CCN1CCN(c2ccc(Nc3cc(N(C)C(=O)Nc4c(Cl)c(OC)cc(OC)c4Cl)ncn3)cc2)CC1.O=P(O)(O)O [INFIGRATINIB PHOSPHATE]
Found: 420 nM

###

study-target: Cyclin-dependent kinase 2 (Homo sapiens)
assay-details: Inhibition of recombinant CDK2
pIC50: −log10 of the molar value.
property-label: pIC50

Lookup: Tell me pIC50 reported for CCN1CCN(c2ccc(Nc3cc(N(C)C(=O)Nc4c(Cl)c(OC)cc(OC)c4Cl)ncn3)cc2)CC1.O=P(O)(O)O [INFIGRATINIB PHOSPHATE]
Found: < 5.00

###

study-target: UniProt:P49841
Sequence (P49841 whole entry): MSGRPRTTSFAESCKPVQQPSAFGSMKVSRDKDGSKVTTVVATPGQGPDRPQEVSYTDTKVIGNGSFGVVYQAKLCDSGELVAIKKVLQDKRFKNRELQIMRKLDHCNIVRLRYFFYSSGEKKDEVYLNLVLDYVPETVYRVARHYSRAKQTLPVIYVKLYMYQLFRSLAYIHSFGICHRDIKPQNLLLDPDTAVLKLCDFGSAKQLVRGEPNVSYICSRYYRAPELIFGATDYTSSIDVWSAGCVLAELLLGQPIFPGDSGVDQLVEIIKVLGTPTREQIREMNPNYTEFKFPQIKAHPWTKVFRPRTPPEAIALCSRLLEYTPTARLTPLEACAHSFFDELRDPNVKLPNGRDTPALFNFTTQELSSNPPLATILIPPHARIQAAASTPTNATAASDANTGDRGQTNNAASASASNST
assay-details: Inhibition of recombinant GSK3-beta
property-label: IC50

Lookup: Tell me IC50 reported for CCN1CCN(c2ccc(Nc3cc(N(C)C(=O)Nc4c(Cl)c(OC)cc(OC)c4Cl)ncn3)cc2)CC1.O=P(O)(O)O [INFIGRATINIB PHOSPHATE]
Found: > 10 µM

###

Record: IC50 reported on Cytochrome P450 2D6 (Homo sapiens, UniProt P10635).
Sequence (P10635 whole entry): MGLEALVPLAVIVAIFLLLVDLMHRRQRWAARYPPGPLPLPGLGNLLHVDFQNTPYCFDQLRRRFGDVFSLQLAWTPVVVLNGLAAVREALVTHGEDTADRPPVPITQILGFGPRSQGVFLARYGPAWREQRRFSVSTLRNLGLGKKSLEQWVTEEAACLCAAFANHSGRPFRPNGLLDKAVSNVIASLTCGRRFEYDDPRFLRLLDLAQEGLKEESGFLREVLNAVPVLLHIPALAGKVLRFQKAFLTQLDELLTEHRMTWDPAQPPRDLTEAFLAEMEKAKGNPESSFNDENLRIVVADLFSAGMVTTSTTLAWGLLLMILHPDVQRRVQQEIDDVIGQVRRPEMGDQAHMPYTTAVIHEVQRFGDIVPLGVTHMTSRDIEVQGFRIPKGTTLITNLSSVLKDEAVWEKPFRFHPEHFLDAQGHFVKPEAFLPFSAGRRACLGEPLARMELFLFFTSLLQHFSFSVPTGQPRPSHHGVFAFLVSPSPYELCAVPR

compound	study-target	IC50
COc1cc(OC)c(Cl)c(NC(=O)N(C)c2cc(Nc3ccc(CCCN(C)C)cc3)ncn2)c1Cl	Cytochrome P450 2D6 (Homo sapiens, UniProt P10635)	> 10 µM
COc1cc(OC)c(Cl)c(NC(=O)N(C)c2cc(Nc3ccc(OCCN4CCCC4)cc3)ncn2)c1Cl	Cytochrome P450 2D6 (Homo sapiens, UniProt P10635)	> 10 µM

We next turn to a different compound, shown below.
Lookup: Provide IC50, system Cytochrome P450 2D6 (Homo sapiens, UniProt P10635), entry CCN1CCN(c2ccc(Nc3cc(N(C)C(=O)Nc4c(Cl)c(OC)cc(OC)c4Cl)ncn3)cc2)CC1.O=P(O)(O)O [INFIGRATINIB PHOSPHATE]
Found: > 10 µM

###

assay-details: Oral bioavailability RT112/luc1 cells implanted athymic nude mouse
Format: ADME, organism-based
condition-parameters: in vivo
property-label: bioavailability (%)
Write it as a number; the unit % goes unstated.

Lookup: Tell me bioavailability reported for CCN1CCN(c2ccc(Nc3cc(N(C)C(=O)Nc4c(Cl)c(OC)cc(OC)c4Cl)ncn3)cc2)CC1.O=P(O)(O)O [INFIGRATINIB PHOSPHATE]
Found: 32

###

study-target: MAP kinase-activated protein kinase 2 (Homo sapiens, UniProt P49137)
Sequence (P49137 whole entry): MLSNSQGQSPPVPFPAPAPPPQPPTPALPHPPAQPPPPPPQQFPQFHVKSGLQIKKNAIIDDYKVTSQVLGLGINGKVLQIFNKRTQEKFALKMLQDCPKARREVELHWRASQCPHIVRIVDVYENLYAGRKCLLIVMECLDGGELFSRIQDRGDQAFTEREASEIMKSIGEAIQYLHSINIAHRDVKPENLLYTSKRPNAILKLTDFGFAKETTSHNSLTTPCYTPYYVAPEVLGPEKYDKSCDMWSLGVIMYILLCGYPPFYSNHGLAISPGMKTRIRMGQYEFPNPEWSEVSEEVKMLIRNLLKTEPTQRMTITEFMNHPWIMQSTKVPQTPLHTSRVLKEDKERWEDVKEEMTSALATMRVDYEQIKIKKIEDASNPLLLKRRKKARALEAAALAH
assay-details: Inhibition of recombinant MK2
property-label: IC50

Lookup: Tell me IC50 reported for CCN1CCN(c2ccc(Nc3cc(N(C)C(=O)Nc4c(Cl)c(OC)cc(OC)c4Cl)ncn3)cc2)CC1.O=P(O)(O)O [INFIGRATINIB PHOSPHATE]
Found: > 10 µM
